Reference source: patent US20240059799A1

Biological target: T1, recombinant human TL1A (human, UniProt O95150 71-251)
T1 construct: homotrimer; biotinylated for SPR capture; the ELISA paragraphs say only 'recombinant TL1A'; also called TNFSF15
T1 chain: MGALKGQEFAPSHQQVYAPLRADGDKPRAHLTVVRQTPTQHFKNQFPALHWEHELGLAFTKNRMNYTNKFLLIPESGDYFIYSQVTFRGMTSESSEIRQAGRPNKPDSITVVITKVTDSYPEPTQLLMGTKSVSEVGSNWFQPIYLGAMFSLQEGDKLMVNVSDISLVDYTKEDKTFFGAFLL
Assay: competition ELISA vs bio-TL1A-0002
test.readout: pIC50
In simple prose, pIC50 is minus the logarithm base ten of a concentration in moles per litre.

Reference set (2 entries):
binder | test.readout | val
TL1A-0012 (antibody, IgG1, V domains shown, IgG1/kappa variant of TL1A-0002) VH: QVQLVQSGAEVKKPGASVKVSCKASGYDFTYYGISWVRQAPGQGLEWMGWISTYNGNTHYADSLQGRVTMTTDTSTRTAYMELRSLRSDDTAVYYCARENYYGSGAYRGGMDVWGQGTTVTVSS VL: EIVLTQSPATLSLSPGERATLSCRASQSVSSYLAWYQQKPGQAPRLLIYDASNRATGIPARFSGSGSGTDFTLTISSLEPEDFAVYYCQQRSNWPWTFGQGTKVEIKR | pIC50 | 8.30
TL1A-0038 (antibody, IgG1, V domains shown, IgG1/kappa variant of TL1A-0002) VH: QVQLVQSGAEVKKPGASVKVSCKASGYDFTYYGISWVRQAPGQGLEWMGWISTYNGNTHYARMLQGRVTMTTDTSTRTAYMELRSLRSDDTAVYYCARENYYGSGDFRGGMDVWGQGTTVTVSS VL: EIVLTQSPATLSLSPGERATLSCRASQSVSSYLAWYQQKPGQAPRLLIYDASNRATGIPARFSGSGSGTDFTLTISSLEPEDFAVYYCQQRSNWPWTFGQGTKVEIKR | pIC50 | 8.14

# input for lookup
Which pIC50 is listed for TL1A-0073 (antibody, IgG1, V domains shown, IgG1/kappa variant of TL1A-0002) VH: QVQLVQSGAEVKKPGASVKVSCKASGYDFTYYGISWVRQAPGQGLEWMGWISTYNTNTHYAQKLQGRVTMTTDTSTRTAYMELRSLRSDDTAVYYCARENYYGSGAYRGGMDVWGQGTTVTVSS VL: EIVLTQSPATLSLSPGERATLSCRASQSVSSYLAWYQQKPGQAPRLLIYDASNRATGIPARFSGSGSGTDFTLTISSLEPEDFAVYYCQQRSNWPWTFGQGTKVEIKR ?
8.30
